Each recorded value in this set is attributed to ChEMBL document CHEMBL4400509.

Molecular target: Lysosomal acid glucosylceramidase (Homo sapiens) (UniProt P04062)
Sequence (whole entry): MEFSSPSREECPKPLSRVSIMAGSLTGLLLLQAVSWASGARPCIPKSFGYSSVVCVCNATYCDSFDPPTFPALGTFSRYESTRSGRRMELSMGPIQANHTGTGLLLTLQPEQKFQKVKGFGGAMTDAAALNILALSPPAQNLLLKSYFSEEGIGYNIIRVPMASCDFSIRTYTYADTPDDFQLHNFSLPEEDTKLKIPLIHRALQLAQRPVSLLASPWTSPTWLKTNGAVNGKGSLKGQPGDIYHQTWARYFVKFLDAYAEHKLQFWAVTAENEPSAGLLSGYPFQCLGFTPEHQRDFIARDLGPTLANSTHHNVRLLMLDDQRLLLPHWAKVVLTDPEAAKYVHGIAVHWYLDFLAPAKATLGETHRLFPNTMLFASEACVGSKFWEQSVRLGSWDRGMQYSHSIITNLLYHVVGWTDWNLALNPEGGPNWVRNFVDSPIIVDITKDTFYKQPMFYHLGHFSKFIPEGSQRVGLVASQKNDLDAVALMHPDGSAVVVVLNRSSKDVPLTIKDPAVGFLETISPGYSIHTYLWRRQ
Test: Activation of wild type recombinant human lysosomal beta-glucocerebrosidase at 0.048 to 100 uM using 4-methylumbelliferyl-beta-D-glucopyranoside as substrate preincubated for 5 mins followed by substrate addition and measured after 30 mins by fluorescence assay relative to control
Calls of active or inactive are those of the source. No cut-off for these calls is given here.
quantity: Emax

Before answering, review these 8 worked examples.
[[record]]
compound = "CN(c1nc(-c2cccnc2)nc2ccccc12)C1CCCCC1"
target = "Lysosomal acid glucosylceramidase (Homo sapiens) (UniProt P04062)"
result = "137%"

[[record]]
compound = "CCCN(CCOc1ccccc1)c1nc(-c2cccnc2)nc2ccccc12"
target = "Lysosomal acid glucosylceramidase (Homo sapiens) (UniProt P04062)"
result = "132%"

[[record]]
compound = "CN1Cc2ccc(CN(C)c3nc(-c4cccnc4)nc4ccccc34)cc2C1"
target = "Lysosomal acid glucosylceramidase (Homo sapiens) (UniProt P04062)"
result = "428%"

[[record]]
compound = "c1cncc(-c2nc(N3CCc4[nH]c5ccccc5c4C3)c3ccccc3n2)c1"
target = "Lysosomal acid glucosylceramidase (Homo sapiens) (UniProt P04062)"
result = "inactive"

[[record]]
compound = "CN(Cc1nc2ccccc2[nH]1)c1nc(-c2cccnc2)nc2ccccc12"
target = "Lysosomal acid glucosylceramidase (Homo sapiens) (UniProt P04062)"
result = "197%"

[[record]]
compound = "CN(CCOc1ccccc1)c1nc(-c2ccccc2)nc2ccccc12"
target = "Lysosomal acid glucosylceramidase (Homo sapiens) (UniProt P04062)"
result = "inactive"

[[record]]
compound = "CCN(CCOc1ccccc1)c1nc(-c2cccnc2)nc2ccccc12"
target = "Lysosomal acid glucosylceramidase (Homo sapiens) (UniProt P04062)"
result = "478%"

[[record]]
compound = "CN(C[C@@H]1COc2ccccc2O1)c1nc(-c2cccnc2)nc2ccccc12"
target = "Lysosomal acid glucosylceramidase (Homo sapiens) (UniProt P04062)"
result = "296%"


Look at each compound and report its Emax.
1. CN(CCOc1ccccc1)c1nc(-c2cccs2)nc2ccccc12
2. CN(CCc1ccccc1)c1nc(-c2cccnc2)nc2ccccc12
3. CN(Cc1ccc2c(c1)OCCO2)c1nc(-c2cccnc2)nc2ccccc12

1. inactive
2. 126%
3. 488%

* * *

Molecular target: Lysosomal acid glucosylceramidase (Homo sapiens)
Experiment: Activation of wild type recombinant human lysosomal beta-glucocerebrosidase at 0.048 to 100 uM using 4-methylumbelliferyl-beta-D-glucopyranoside as substrate preincubated for 5 mins followed by substrate addition and measured after 30 mins by fluorescence assay relative to control
Provide the recorded Emax for the entries that follow.
Remember to put the unit after the number in your answer.

Before answering, review these 9 worked examples.
[[record]]
molecule = "CN(CCOCc1ccccc1)c1nc(-c2cccnc2)nc2ccccc12"
result = "394%"

[[record]]
molecule = "c1cncc(-c2nc(N3CCOc4ccccc4C3)c3ccccc3n2)c1"
result = "438%"

[[record]]
molecule = "c1ccc(C2CCCN(c3nc(-c4cccnc4)nc4ccccc34)C2)cc1 (stereo not given)"
result = "130%"

[[record]]
molecule = "CN(CCOc1ccccc1)c1nc(-c2ccncc2)nc2ccccc12"
result = "690%"

[[record]]
molecule = "c1ccc(O[C@@H]2CCCN(c3nc(-c4cccnc4)nc4ccccc34)C2)cc1"
result = "302%"

[[record]]
molecule = "CN(CCOc1ccccc1)c1nc(-c2ccco2)nc2ccccc12"
result = "229%"

[[record]]
molecule = "CN(Cc1ccc2c(c1)OCO2)c1nc(-c2cccnc2)nc2ccccc12"
result = "160%"

[[record]]
molecule = "CN(Cc1ccc2nsnc2c1)c1nc(-c2cccnc2)nc2ccccc12"
result = "337%"

[[record]]
molecule = "CC(CN(C)c1nc(-c2cccnc2)nc2ccccc12)Oc1ccccc1 (stereo not given)"
result = "390%"


Memo: CN(CCCOc1ccccc1)c1nc(-c2cccnc2)nc2ccccc12 , reported Emax: 208%
